B1: FUNDC2 (parent)
chain: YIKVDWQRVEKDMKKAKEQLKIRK

- Variants of: B1
- PROTOCOL NOTES: protein stability index of a GFP-peptide fusion (GPS, HEK-293T) (PSI 1-6); higher = more stable;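 also: lentivirally expressed fusions sorted by FACS into six bins by GFP to DsRed ratio, PSI derived from sequencing read proportions per bin multiplied by bin number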
- CONDITION DESCRIPTION: c terminus: a fixed tail appended
Please enter yes where protein stability index is greater than or equal to 2, and no where it is lower.

{"columns": ["CHANGE", "QUALITATIVE LABEL"],
 "data": [
  ["V9E", "yes"],
  ["K11L", "no"],
  ["L20T", "yes"],
  ["K21S", "yes"],
  ["K21A", "no"],
  ["K14V", "no"],
  ["E10D", "no"],
  ["K3L", "no"],
  ["W6L", "yes"],
  ["K24N", "yes"]
]}

For the next question, use this variant.
Determine whether measured protein stability index meets or exceeds 2 for K17D no
